- Assay target: Fyn (UniProt P06241)
- Sequence (P06241 whole entry, looked up): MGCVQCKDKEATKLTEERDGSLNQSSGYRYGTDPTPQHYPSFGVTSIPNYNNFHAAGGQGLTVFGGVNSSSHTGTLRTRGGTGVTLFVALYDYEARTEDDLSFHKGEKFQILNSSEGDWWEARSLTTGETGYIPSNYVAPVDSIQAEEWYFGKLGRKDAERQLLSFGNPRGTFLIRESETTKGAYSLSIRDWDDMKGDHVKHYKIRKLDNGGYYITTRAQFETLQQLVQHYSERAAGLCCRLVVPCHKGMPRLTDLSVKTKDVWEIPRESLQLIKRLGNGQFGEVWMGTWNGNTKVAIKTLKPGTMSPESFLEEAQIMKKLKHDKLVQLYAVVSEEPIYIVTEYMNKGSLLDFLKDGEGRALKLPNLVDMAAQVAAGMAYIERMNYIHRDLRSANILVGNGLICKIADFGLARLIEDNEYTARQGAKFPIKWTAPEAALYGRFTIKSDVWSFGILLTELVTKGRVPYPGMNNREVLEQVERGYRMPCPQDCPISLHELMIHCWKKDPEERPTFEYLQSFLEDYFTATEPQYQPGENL
- Assay text: phosphorylation enrichment, bacterial display (enrichment ratio); higher = better substrate or ligand; peptides without Tyr show the background;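 also: 11-residue human phosphosite peptides and single-mutation variants displayed on the E. coli surface, counted by deep sequencing, each peptide's frequency after selection divided by its frequency in the unselected input library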;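 also: frequency after pTyr selection over input frequency; kinase dosed for 20-30% of maximal phosphorylation in three min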
Class field: derived from phosphorylation enrichment; ranges bottom bin (below 0.5), middle bin (0.5 to below 1), top bin (1 or more)

Field: example entries. Status: answers known.
The entry to classify is NQDRTYFERVR [SPEN_Y632_S635R_YF] ; which class holds it?
bottom bin

The entry to classify is PPPELYFVKVD [TERT_Y707] ; which class holds it?
middle bin

The entry to classify is RKPDIYGRLAS [MCM4_Y459_E460G] ; which class holds it?
top bin

The entry to classify is PGNIVYSSLCG [BCOR_Y90] ; which class holds it?
top bin

The entry to classify is TFGVVYKARNK [CDK2_Y19_YF] ; which class holds it?
bottom bin

The entry to classify is CLAKMYFSAVD [CP_Y539_YF] ; which class holds it?
middle bin

The entry to classify is STSYDYCRVPM [BST2_Y8] ; which class holds it?
middle bin

The entry to classify is QRRNVYFFSFL [PTEN_Y176_Y174N_YF] ; which class holds it?
top bin

New cases:
The entry to classify is SDVLSYGVTMW [ZAP70_Y525_W523L] ; which class holds it?
bottom bin

The entry to classify is IGEGTSGVVYK [CDK2_Y15_Y15S] ; which class holds it?
bottom bin

###

- System: Fer (mouse)
- Assay text: phosphorylation enrichment, bacterial display (enrichment ratio); higher = better substrate or ligand; peptides without Tyr show the background
Item-by-item account of phosphorylation enrichment
API note: the answer field is a bare number with no unit suffix.

Need phosphorylation enrichment, item MFRAGYDTKQE [F10_Y407_C404R]
0.391

Moving on to the next sequence.
Need phosphorylation enrichment, item LSIWPYLQKID [MFSD8_Y63_M58L]
0.577

###

Item-by-item account of phosphorylation enrichment
- Test system: Fer (mouse)
- Assay text: phosphorylation enrichment, bacterial display (enrichment ratio); higher = better substrate or ligand; peptides without Tyr show the background
API note: the answer field is a bare number with no unit suffix.

Need phosphorylation enrichment, item GAAMLYYPSVS [GPR143_Y177]
0.63

Need phosphorylation enrichment, item QHVPDYRQNVF [PCDHGA1_Y890_YF]
0.578

Need phosphorylation enrichment, item ASSPVYVPTTR [GATA6_Y188]
0.406

Need phosphorylation enrichment, item DMQTLYVNTAA [SMCHD1_Y403]
0.482

New cases:
Need phosphorylation enrichment, item LTERGYSFVTT [ACTA1_Y200]
0.823

Need phosphorylation enrichment, item AIGCEYSEINI [SIGLEC12_Y588_Y586C]
5.32

Need phosphorylation enrichment, item CSRRFYQLTKL [AR_Y858]
0.468

###

- Assay target: FGFR3 (UniProt P22607)
- Sequence (P22607 whole entry, looked up): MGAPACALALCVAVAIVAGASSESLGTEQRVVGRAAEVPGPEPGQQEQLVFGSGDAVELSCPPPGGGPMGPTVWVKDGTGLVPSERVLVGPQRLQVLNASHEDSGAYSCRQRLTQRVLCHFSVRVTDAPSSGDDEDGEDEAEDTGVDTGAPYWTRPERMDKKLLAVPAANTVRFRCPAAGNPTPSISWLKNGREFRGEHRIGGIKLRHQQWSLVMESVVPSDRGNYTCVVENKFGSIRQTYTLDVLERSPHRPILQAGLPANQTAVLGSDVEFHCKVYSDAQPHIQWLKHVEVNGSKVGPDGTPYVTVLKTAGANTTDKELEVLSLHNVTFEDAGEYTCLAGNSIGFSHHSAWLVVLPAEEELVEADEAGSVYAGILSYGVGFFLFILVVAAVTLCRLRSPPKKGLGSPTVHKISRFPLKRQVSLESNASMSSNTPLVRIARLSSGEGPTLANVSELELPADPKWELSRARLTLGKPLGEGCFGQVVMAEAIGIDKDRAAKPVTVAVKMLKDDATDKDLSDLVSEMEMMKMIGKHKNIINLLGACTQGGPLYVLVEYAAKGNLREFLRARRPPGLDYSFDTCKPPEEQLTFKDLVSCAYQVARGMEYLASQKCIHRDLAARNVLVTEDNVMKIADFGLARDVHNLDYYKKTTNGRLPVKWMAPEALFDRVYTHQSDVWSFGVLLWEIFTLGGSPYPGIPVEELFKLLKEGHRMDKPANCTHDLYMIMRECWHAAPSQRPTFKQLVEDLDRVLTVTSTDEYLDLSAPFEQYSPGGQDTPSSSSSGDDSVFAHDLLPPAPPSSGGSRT
- Assay text: phosphorylation enrichment, bacterial display (enrichment ratio); higher = better substrate or ligand; peptides without Tyr show the background
Item-by-item account of phosphorylation enrichment
API note: the answer field is a bare number with no unit suffix.

// below: answered sequences
Form: Entry = LHAAAYQNALA [UQCRC2_Y182_R183Q] | System = FGFR3 (UniProt P22607) | phosphorylation enrichment = ____
0.476

Form: Entry = NIWDSYTTNKV [GNB1_Y85_I80N] | System = FGFR3 (UniProt P22607) | phosphorylation enrichment = ____
0.658

Form: Entry = ARKRKYFKKHE [NFIX_Y40] | System = FGFR3 (UniProt P22607) | phosphorylation enrichment = ____
0.591

New cases:
Form: Entry = VVLVSYVPSSQ [SH2B1_Y624] | System = FGFR3 (UniProt P22607) | phosphorylation enrichment = ____
0.703

Form: Entry = GMEIVYVFVKK [DNAI2_Y5_YF] | System = FGFR3 (UniProt P22607) | phosphorylation enrichment = ____
0.862

Form: Entry = TIQMMYGCDVG [HLA-A_Y123_I121M] | System = FGFR3 (UniProt P22607) | phosphorylation enrichment = ____
0.987

Form: Entry = FIIFIYAMKKK [SLCO1B1_Y645_L643F_YF] | System = FGFR3 (UniProt P22607) | phosphorylation enrichment = ____
0.578
